Below, each entry is listed alongside its reported Ki.
# TARGET_DESC: Neuronal acetylcholine receptor; alpha4/beta2 (Rattus norvegicus, UniProt P09483+P12390)
# Sequence (P09483 whole entry): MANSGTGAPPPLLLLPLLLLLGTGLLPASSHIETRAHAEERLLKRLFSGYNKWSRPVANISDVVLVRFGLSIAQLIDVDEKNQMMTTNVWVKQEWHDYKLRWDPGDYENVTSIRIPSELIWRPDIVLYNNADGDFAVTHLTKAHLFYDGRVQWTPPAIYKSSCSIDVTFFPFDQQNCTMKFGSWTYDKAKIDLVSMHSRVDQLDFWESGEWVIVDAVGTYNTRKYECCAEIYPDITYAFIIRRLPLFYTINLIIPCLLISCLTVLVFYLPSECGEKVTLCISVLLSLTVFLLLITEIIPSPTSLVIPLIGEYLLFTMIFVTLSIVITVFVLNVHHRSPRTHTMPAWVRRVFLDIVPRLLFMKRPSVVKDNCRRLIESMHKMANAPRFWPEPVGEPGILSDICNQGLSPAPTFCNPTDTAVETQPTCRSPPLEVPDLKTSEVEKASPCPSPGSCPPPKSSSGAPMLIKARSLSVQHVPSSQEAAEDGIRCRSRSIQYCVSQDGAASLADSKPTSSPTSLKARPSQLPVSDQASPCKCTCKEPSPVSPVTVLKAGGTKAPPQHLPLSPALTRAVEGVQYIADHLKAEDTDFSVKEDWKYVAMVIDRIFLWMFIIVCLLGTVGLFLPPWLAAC
# Sequence (P12390 whole entry): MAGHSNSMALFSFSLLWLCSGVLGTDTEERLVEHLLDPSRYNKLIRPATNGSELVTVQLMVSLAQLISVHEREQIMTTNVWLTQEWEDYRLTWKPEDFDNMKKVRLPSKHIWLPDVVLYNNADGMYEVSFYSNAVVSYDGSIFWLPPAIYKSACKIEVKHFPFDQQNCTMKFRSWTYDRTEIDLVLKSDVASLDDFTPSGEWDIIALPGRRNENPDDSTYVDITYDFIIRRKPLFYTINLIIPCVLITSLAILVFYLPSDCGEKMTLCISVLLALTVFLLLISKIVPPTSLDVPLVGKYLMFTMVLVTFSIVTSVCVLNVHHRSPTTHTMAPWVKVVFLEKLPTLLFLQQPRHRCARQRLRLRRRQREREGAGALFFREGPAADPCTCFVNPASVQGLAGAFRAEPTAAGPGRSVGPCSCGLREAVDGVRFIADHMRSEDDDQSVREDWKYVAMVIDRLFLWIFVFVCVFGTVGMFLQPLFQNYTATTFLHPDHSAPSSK
# EXPERIMENTAL_PROTOCOL: Displacement of [3H]-cytisine from Sprague-Dawley rat brain alpha4beta2 nAChR after 4 hrs by liquid scintillation counting analysis

- COMPOUND: "COc1ccc(CC2C(c3cccnc3)=N[C@@H]3CC[C@H]2C3)c(OC)c1 (some centres undefined)"
  Ki: "347 nM"
- COMPOUND: "Nc1ccc(CC2C(c3cccnc3)=N[C@H]3CC[C@@H]2C3)cc1 (some centres undefined)"
  Ki: "34.1 nM"
- COMPOUND: "Oc1ccc(CC2C(c3cccnc3)=N[C@H]3CC[C@@H]2C3)cc1 (some centres undefined)"
  Ki: "72.5 nM"
- COMPOUND: "COc1ccc(CC2C(c3cccnc3)=N[C@H]3CC[C@@H]2C3)c(OC)c1 (some centres undefined)"
  Ki: "219 nM"
